Values from patent US20130109693A1

Tested on: PC3
procedure text: Cytotoxicity on human cells, PC3 (prostate)
Format: cell-based
condition label: PC-3, human cells, exposed 24 h and 48 h, 0.1 to 25 μM
pIC50: −log10 of the molar value.
# if value of pIC50 reaches 5, tag YES; if it stays below, tag NO

The examples below pair each entry with its known result.
| sample smiles | qualitative label |
| --- | --- |
| Oc1ccc(-c2ncc3ncc(-c4ccsc4)cc3n2)cc1 | NO |
| Oc1ccc(-c2ncc3ncc(Nc4ncccn4)cc3n2)cc1 | YES |
| N#Cc1ccc(Nc2cnc3cnc(-c4ccc(O)cc4)nc3c2)nc1 | NO |
| Oc1ccc(-c2ncc3ncc(-c4ccco4)cc3n2)cc1 | NO |
| Oc1ccc(-c2ncc3ncc(-c4cccnc4)cc3n2)cc1 | NO |

Query :: hey, is pIC50 for this one >= 5? Oc1ccccc1-c1cnc2cnc(-c3ccccc3O)nc2c1
Result :: NO

Query :: Field entry: COc1ccc(Nc2cnc3c(NCc4ccccc4)nc(NCCO)nc3c2)cc1OC
Result :: YES

Query :: Same again, this time with CS(=O)(=O)c1ccc(-c2cnc3cnc(-c4ccc(O)cc4)nc3c2)cc1
Result :: NO

Query :: Same again, this time with COc1ccc(Nc2cnc3cnc(-c4ccc(O)cc4)nc3c2)cc1
Result :: YES

====

Listing of entries alongside the reported melting point.

| molecule | obs value |
| --- | --- |
| OCCNc1nc(NCc2ccccc2)c2ncc(Cl)cc2n1 [Compound 82] | 106 to 107 °C |
| Oc1ccc(-c2ncc3ncc(Nc4ccccn4)cc3n2)cc1 [Compound 57] | > 268 °C |
| Cc1csc(Nc2cnc3cnc(-c4ccc(O)cc4)nc3c2)n1 [Compound 50] | > 268 °C |
| Oc1ccc(-c2cnc3cnc(-c4ccccc4O)nc3c2)cc1 [Compound 31] | > 268 °C |
| O=C1CNCCN1c1cnc2cnc(-c3ccc(O)cc3)nc2c1 [Compound 70] | > 268 °C |
| OCCNc1nc(NCc2ccccc2)c2ncc(Nc3ccc4ncccc4c3)cc2n1 [Compound 90] | 203 to 204 °C |
| COCOc1ccc(-c2ncc3ncc(Cl)cc3n2)cc1 [Compound 64] | > 268 °C |
| Oc1ccc(-c2ncc3ncc(-c4ccccc4O)cc3n2)cc1 [Compound 24] | 278 to 279 °C |

Query :: Please give the measured melting point for this molecule: O=C(Nc1cnc2cnc(-c3ccc(O)cc3)nc2c1)c1cccnc1 [Compound 68]
Result :: 226 to 228 °C

Query :: Moving on to the next molecule: COCOc1ccc(-c2ncc3ncc(N4CCCCC4=O)cc3n2)cc1 [Compound 66]
Result :: 202 to 204 °C

====

System: NCI
procedure text: Cytotoxicity on human cells, NCI (lung)
Format: cell-based
condition label: exposed 24 h and 48 h, 0.1 to 25 μM
Here, each record is paired with measured IC50 data.
Lab book: enter the figure in µM, no units written.

Completed entries (count: 5):
| sample smiles | measured target | units symbol | IC50 |
| --- | --- | --- | --- |
| COc1cccc(Nc2cnc3c(NCc4ccccc4)nc(NCCO)nc3c2)c1 | NCI | µM | 3 |
| Oc1ccc(-c2ncc3ncc(-c4ccsc4)cc3n2)cc1 | NCI | µM | 10 |
| Cc1ncccc1Nc1cnc2cnc(-c3ccc(O)cc3)nc2c1 | NCI | µM | 15 |
| CC(=O)c1ccc(Nc2cnc3c(NCc4ccccc4)nc(NCCO)nc3c2)cc1 | NCI | µM | 2 |
| COc1ccc(Nc2cnc3c(NCc4ccccc4)nc(NCCO)nc3c2)cc1OC | NCI | µM | 2 |

--- query ---
Query :: Give IC50 (NCI) of the following compound: Oc1ccccc1-c1cnc2cnc(-c3ccccc3O)nc2c1
Result :: 2
